From: PubChem BioAssay AID1159580

- Test Protocol: chemical genetic growth profiling, strain panel (AID 1159580);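 note: tested at 20 µM; growth read once vehicle control cultures reached saturation at 30 °C; lower values mean less growth of the strain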
- Test Parameters: S. cerevisiae deletion strains, growth OD, locus YNL248C, strain rpa49
The campaign covered roughly 5,500 compounds. About 2,000 (36%) were called active. Not shown: some 18% with an inconclusive outcome. Cut-off read from the data, not from the text of the source: active = normalized growth mostly below about 0.91 (no sharp cut-off); inconclusive = no clear call, values can overlap the other calls; inactive = mostly above about 0.92. Some of the results follow.
Outcome codes: active, inactive

>>> label_value("Cc1cccc(C)c1OCC(C)N (centres undefined)")
"inactive"
>>> label_value("Cc1cc(O)c(C=O)c(O)c1C(=O)O")
"inactive"
>>> label_value("C[C@]12CCC(=O)C=C1CCC1C2CC[C@@]2(C)C1CC[C@@H]2O (some centres undefined)")
"inactive"
>>> label_value("COc1cc2c(cc1OC)Cc1cc(OC)c(OC)cc1Cc1cc(OC)c(OC)cc1C2")
"inactive"
>>> label_value("O=C(O)c1c2ccccc2cc2ccccc12")
"inactive"
>>> label_value("CC1=C(C/C=C(\\C)CCC[C@H](C)CCC[C@H](C)CCCC(C)C)C(=O)c2ccccc2C1=O")
"inactive"
>>> label_value("OCCN1C[C@@H](O)[C@@H](O)C(O)C1CO (some centres undefined)")
"inactive"
>>> label_value("CN1CCCN=C1COC(=O)C(O)(c1ccccc1)C1CCCCC1 (centres undefined)")
"inactive"
>>> label_value("CCN(CC)CCNC(=O)c1cc(Br)c(N)cc1OC")
"inactive"
>>> label_value("Cc1cc(O)c(C)c(O)c1C(=O)O")
"inactive"
>>> label_value("CCOC(=O)CCC(=O)O[C@H]1[C@H](O[C@@H]2[C@@H](C)[C@H](O[C@H]3C[C@@](C)(OC)[C@@H](O)[C@H](C)O3)[C@@H](C)C(=O)O[C@H](CC)[C@@](C)(O)[C@H](O)[C@@H](C)C(=O)[C@H](C)C[C@@]2(C)O)O[C@H](C)C[C@@H]1N(C)C")
"inactive"
>>> label_value("CC1CC2C3CC(F)C4=CC(=O)C=CC4(C)C3(F)C(O)CC2(C)C1(O)C(=O)CO (centres undefined)")
"inactive"
>>> label_value("CCCCCCNC(=O)n1cc(F)c(=O)[nH]c1=O")
"active"
>>> label_value("CC1CC2C3CCC4=CC(=O)C=C[C@]4(C)[C@@]3(F)[C@@H](O)C[C@]2(C)[C@@]1(O)C(=O)CO (some centres undefined)")
"inactive"
>>> label_value("CN1CCC(=C2c3ccccc3Sc3ccccc32)CC1")
"inactive"
>>> label_value("COc1cc(NS(=O)(=O)c2ccc(N)cc2)nc(OC)n1")
"inactive"
>>> label_value("CC(=O)OC(C)(C)[C@@H]1Cc2cc3ccc(=O)oc3cc2O1")
"inactive"
>>> label_value("N=c1ccn2c(n1)O[C@@H]1C2O[C@H](CO)[C@H]1O (some centres undefined)")
"inactive"
>>> label_value("CC1=C(C(C)O)C2=NC1C=c1[nH]c(c(C)c1C(C)O)=Cc1[nH]c(c(CCC(=O)O)c1C)C=c1[nH]c(c(C)c1CCC(=O)O)=C2 (centres undefined)")
"inactive"
>>> label_value("CC1(C)OC(=O)NC1=O")
"inactive"
>>> label_value("COC1=C(OC)C(=O)C(C/C=C(\\C)CC/C=C(\\C)CC/C=C(\\C)CC/C=C(/C)CC/C=C(\\C)CC/C=C(\\C)CC/C=C(\\C)CC/C=C(\\C)CC/C=C(\\C)CCC=C(C)C)=C(C)C1=O")
"inactive"
>>> label_value("Oc1cc(Cl)ccc1Oc1ccc(Cl)cc1Cl")
"active"
>>> label_value("CCCCNc1cc(C(=O)O)cc(S(N)(=O)=O)c1Oc1ccccc1")
"inactive"
>>> label_value("CCN(CC)CCCC(C)Nc1c2ccc(Cl)cc2nc2ccc(OC)cc12 (centres undefined)")
"inactive"
>>> label_value("CCN(CCO)CCCC(C)Nc1ccnc2cc(Cl)ccc12 (centres undefined)")
"inactive"
>>> label_value("CC(=O)NC1SCCC1=O (centres undefined)")
"inactive"
>>> label_value("CCC(=O)O[C@H]1[C@H](O[C@@H]2[C@@H](C)[C@H](O[C@H]3C[C@@](C)(OC)[C@@H](O)[C@H](C)O3)[C@@H](C)C(=O)O[C@H](CC)[C@@](C)(O)[C@H](O)[C@@H](C)C(=O)[C@H](C)C[C@@]2(C)O)O[C@H](C)C[C@@H]1N(C)C")
"active"
>>> label_value("O=C(O)c1cc2ccccc2c(Cc2c(O)c(C(=O)O)cc3ccccc23)c1O")
"inactive"
>>> label_value("O=C(O)c1cc2ccccc2[nH]1")
"inactive"
>>> label_value("CN1CCC(=C2c3ccccc3CCc3sccc32)CC1")
"inactive"
>>> label_value("CN(C)CC/C=C1\\c2ccccc2Sc2ccc(Cl)cc21")
"inactive"
>>> label_value("CCC(=O)O[C@H]1CCC2C3CCC4=CC(=O)CC[C@]4(C)C3CC[C@@]21C (some centres undefined)")
"active"
>>> label_value("NCCSSCCN")
"inactive"
>>> label_value("C=C1C2CC[C@H]3[C@]4(C)C[C@H](OC5OC(CO)C(OS(=O)(=O)O)C(OS(=O)(=O)O)C5OC(=O)CC(C)C)C[C@@H](C(=O)O)[C@H]4CC[C@]3(C2)[C@H]1O (some centres undefined)")
"inactive"
